- MEASUREMENT_TARGET: Tubulin (Bos taurus, UniProt Q6B856+Q862L2+Q862F3)
- PROTOCOL_NOTES: Drug concentration needed to produce a 50% reduction of bovine brain tubulin polymerization relative to the control
Quick reference: IC50 of the listed items.

>  <COMPOUND>
COc1cc([C@@H]2c3cc4c(cc3[C@@H](CCN3CCOCC3)C3COC(=O)[C@@H]32)OCO4)cc(OC)c1O.Cl (some centres undefined)

>  <IC50>
> 167 µM

$$$$
>  <COMPOUND>
COc1cc([C@@H]2c3cc4c(cc3[C@@H](CCN(C)Cc3ccccn3)C3COC(=O)[C@@H]32)OCO4)cc(OC)c1O.Cl.Cl (some centres undefined)

>  <IC50>
> 100 µM

$$$$
>  <COMPOUND>
COc1cc([C@@H]2c3cc4c(cc3[C@@H](CC(=O)NCc3ccncc3)C3COC(=O)[C@@H]32)OCO4)cc(OC)c1O.Cl (some centres undefined)

>  <IC50>
> 100 µM

$$$$
>  <COMPOUND>
COc1cc([C@@H]2c3cc4c(cc3[C@@H](CCN(C)Cc3ccncc3)C3COC(=O)[C@@H]32)OCO4)cc(OC)c1O.Cl.Cl (some centres undefined)

>  <IC50>
> 100 µM

$$$$
>  <COMPOUND>
COc1cc([C@@H]2c3cc4c(cc3[C@@H](CCN(C)N3CCN(C)CC3)C3COC(=O)[C@@H]32)OCO4)cc(OC)c1O.Cl.Cl (some centres undefined)

>  <IC50>
> 100 µM

$$$$
>  <COMPOUND>
COc1cc([C@@H]2c3cc4c(cc3[C@@H](CCN(C)C3CCCCC3)C3COC(=O)[C@@H]32)OCO4)cc(OC)c1O.Cl (some centres undefined)

>  <IC50>
> 167 µM

$$$$
>  <COMPOUND>
COc1cc([C@@H]2c3cc4c(cc3[C@@H](CC(=O)NCCc3cccn3C)C3COC(=O)[C@@H]32)OCO4)cc(OC)c1O.Cl (some centres undefined)

>  <IC50>
> 100 µM

$$$$
>  <COMPOUND>
COc1cc([C@@H]2c3cc4c(cc3[C@@H](CCN3CCCCC3)C3COC(=O)[C@@H]32)OCO4)cc(OC)c1O.Cl (some centres undefined)

>  <IC50>
> 167 µM

$$$$
>  <COMPOUND>
COc1cc([C@@H]2c3cc4c(cc3[C@@H](CCN3CCC[C@@H]3CO)C3COC(=O)[C@@H]32)OCO4)cc(OC)c1O.Cl (some centres undefined)

>  <IC50>
> 62 µM

$$$$
>  <COMPOUND>
COc1cc([C@@H]2c3cc4c(cc3[C@@H](CCNCCN(C)C)C3COC(=O)[C@@H]32)OCO4)cc(OC)c1O.Cl.Cl (some centres undefined)

>  <IC50>
> 100 µM

$$$$
>  <COMPOUND>
CCCCCCN(C)CC[C@@H]1c2cc3c(cc2[C@@H](c2cc(OC)c(O)c(OC)c2)[C@H]2C(=O)OCC12)OCO3.Cl (some centres undefined)

>  <IC50>
> 167 µM

$$$$
>  <COMPOUND>
COc1cc([C@@H]2c3cc4c(cc3[C@@H](CCN(C)CCCCCCN(C)C)C3COC(=O)[C@@H]32)OCO4)cc(OC)c1O.Cl.Cl (some centres undefined)

>  <IC50>
> 133 µM

$$$$
>  <COMPOUND>
COc1cc([C@@H]2c3cc4c(cc3[C@@H](CCN3CCC(N5CCCCC5)CC3)C3COC(=O)[C@@H]32)OCO4)cc(OC)c1O.Cl.Cl (some centres undefined)

>  <IC50>
> 167 µM

$$$$
>  <COMPOUND>
COc1cc([C@@H]2c3cc4c(cc3[C@@H](CCN(C)CCO)C3COC(=O)[C@@H]32)OCO4)cc(OC)c1O.Cl (some centres undefined)

>  <IC50>
> 100 µM

$$$$
>  <COMPOUND>
COc1cc([C@@H]2c3cc4c(cc3[C@@H](CCN(C)N(C)C)C3COC(=O)[C@@H]32)OCO4)cc(OC)c1O.Cl (some centres undefined)

>  <IC50>
> 100 µM

$$$$
>  <COMPOUND>
COc1cc([C@@H]2c3cc4c(cc3[C@@H](CCN(C)C(CO)CO)C3COC(=O)[C@@H]32)OCO4)cc(OC)c1O.Cl (some centres undefined)

>  <IC50>
> 167 µM

$$$$
>  <COMPOUND>
COc1cc([C@@H]2c3cc4c(cc3[C@@H](CC(=O)N3CCC(N5CCCCC5)CC3)C3COC(=O)[C@@H]32)OCO4)cc(OC)c1O.Cl (some centres undefined)

>  <IC50>
> 100 µM

$$$$
>  <COMPOUND>
COCCN(C)CC[C@@H]1c2cc3c(cc2[C@@H](c2cc(OC)c(O)c(OC)c2)[C@H]2C(=O)OCC12)OCO3.Cl (some centres undefined)

>  <IC50>
> 100 µM

$$$$
>  <COMPOUND>
COc1cc([C@@H]2c3cc4c(cc3[C@@H](CCN(C)C)C3COC(=O)[C@@H]32)OCO4)cc(OC)c1O.Cl (some centres undefined)

>  <IC50>
> 100 µM

$$$$
>  <COMPOUND>
COc1cc([C@@H]2c3cc4c(cc3[C@@H](CCO)C3COC(=O)[C@@H]32)OCO4)cc(OC)c1O (some centres undefined)

>  <IC50>
2 µM

$$$$
>  <COMPOUND>
COc1cc([C@@H]2c3cc4c(cc3[C@@H](CC(=O)NCCN3CCOCC3)C3COC(=O)[C@@H]32)OCO4)cc(OC)c1O.Cl (some centres undefined)

>  <IC50>
> 100 µM

$$$$
>  <COMPOUND>
COc1cc([C@@H]2c3cc4c(cc3[C@@H](CCCO)C3COC(=O)[C@@H]32)OCO4)cc(OC)c1O (some centres undefined)

>  <IC50>
26 µM

$$$$
>  <COMPOUND>
COc1cc([C@@H]2c3cc4c(cc3[C@@H](CCCN(C)C)C3COC(=O)[C@@H]32)OCO4)cc(OC)c1O.Cl (some centres undefined)

>  <IC50>
> 167 µM

$$$$
>  <COMPOUND>
COc1cc([C@@H]2c3cc4c(cc3[C@@H](CCN(C)CCN3CCCCC3)C3COC(=O)[C@@H]32)OCO4)cc(OC)c1O.Cl.Cl (some centres undefined)

>  <IC50>
> 167 µM

$$$$
>  <COMPOUND>
CCN(CC)CCN(C)CC[C@@H]1c2cc3c(cc2[C@@H](c2cc(OC)c(O)c(OC)c2)[C@H]2C(=O)OCC12)OCO3.Cl.Cl (some centres undefined)

>  <IC50>
> 100 µM

$$$$
>  <COMPOUND>
COc1cc([C@@H]2c3cc4c(cc3[C@@H](CCN(C)CCN(C)C)C3COC(=O)[C@@H]32)OCO4)cc(OC)c1O.Cl.Cl (some centres undefined)

>  <IC50>
> 99 µM

$$$$
>  <COMPOUND>
COc1cc([C@@H]2c3cc4c(cc3[C@@H](CCN(C)CCN3CCOCC3)C3COC(=O)[C@@H]32)OCO4)cc(OC)c1O.Cl.Cl (some centres undefined)

>  <IC50>
> 167 µM

$$$$
>  <COMPOUND>
COc1cc([C@@H]2c3cc4c(cc3[C@@H](CCN(C)Cc3ccccc3)C3COC(=O)[C@@H]32)OCO4)cc(OC)c1O.Cl (some centres undefined)

>  <IC50>
> 167 µM

$$$$
>  <COMPOUND>
COc1cc([C@@H]2c3cc4c(cc3[C@@H](CCN3CCN(C)CC3)C3COC(=O)[C@@H]32)OCO4)cc(OC)c1O.Cl.Cl (some centres undefined)

>  <IC50>
> 132 µM

$$$$
